Ref: paper PMC6114080

pIC50: −log10 of the molar value.
Measurement record for CpGPI (MBP-CpGPI) (Cryptosporidium parvum, UniProt Q5CTF8); quantity recorded: pIC50.
measureName: pIC50

| compound | measuredNumber |
| --- | --- |
| O=c1c2ccccc2[se]n1-c1ccccc1 [ebselen, 2-phenyl-1,2-benzisoselenazol-3(2H)-one] | 5.08 |
| O=C[C@H](O)[C@H](O)COP(=O)(O)O [erythrose-4-phosphate] | 3.88 |

----------
molecular target: HsGPI (Homo sapiens)
pIC50: −log10 of the molar value.

| compound | pIC50 |
| --- | --- |
| O=c1c2ccccc2[se]n1-c1ccccc1 [ebselen, 2-phenyl-1,2-benzisoselenazol-3(2H)-one] | < 3.40 |

----------
target: CpGPI (MBP-CpGPI) (Cryptosporidium parvum)
Sequence (Q5CTF8 1-567): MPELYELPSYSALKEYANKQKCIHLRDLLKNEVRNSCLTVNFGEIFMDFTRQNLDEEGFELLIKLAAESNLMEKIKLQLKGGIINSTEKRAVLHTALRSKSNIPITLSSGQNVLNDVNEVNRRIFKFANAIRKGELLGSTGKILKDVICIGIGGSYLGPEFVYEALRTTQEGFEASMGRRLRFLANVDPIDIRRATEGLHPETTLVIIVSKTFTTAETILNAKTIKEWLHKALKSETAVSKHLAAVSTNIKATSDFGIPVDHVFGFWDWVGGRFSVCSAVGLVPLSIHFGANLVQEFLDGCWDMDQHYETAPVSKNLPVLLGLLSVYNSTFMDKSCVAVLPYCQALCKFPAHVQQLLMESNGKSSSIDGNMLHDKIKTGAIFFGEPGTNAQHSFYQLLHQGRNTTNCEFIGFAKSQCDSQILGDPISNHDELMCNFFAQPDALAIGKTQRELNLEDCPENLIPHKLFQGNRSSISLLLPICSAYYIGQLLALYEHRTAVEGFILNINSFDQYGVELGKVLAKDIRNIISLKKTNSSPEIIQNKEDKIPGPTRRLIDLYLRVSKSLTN

| entrySmiles | unitsLabel | Ki |
| --- | --- | --- |
| O=c1c2ccccc2[se]n1-c1ccccc1 | µM | 36.3 |
